Test system: rat
assay summary: animal or person
reported conditions: Rattus norvegicus, po, read-out: Analgesia ED50
compounds and their reported ED50
Please format your answer as a value with the unit trailing.

Look over these answered cases.
{"compound": "Nc1ccc(CN2CCN(CC(=O)c3ccccc3)CC2)cc1", "ED50": "52.4 mg/kg"}
{"compound": "CC(=O)Oc1ccccc1C(=O)O [Aspirin, reference compound]", "ED50": "843 mg/kg"}
{"compound": "CN1CC[C@]23c4c5ccc(O)c4O[C@H]2[C@@H](O)C=C[C@H]3[C@H]1C5 [Morphine, reference compound]", "ED50": "107 mg/kg"}

Entry CC(=O)Nc1ccc(O)cc1 [Paracetamol, reference compound] , ED50 reported as 4320 mg/kg
